System: human CB1 (Homo sapiens) | Read-out: Ki
Sequence (P21554 whole entry): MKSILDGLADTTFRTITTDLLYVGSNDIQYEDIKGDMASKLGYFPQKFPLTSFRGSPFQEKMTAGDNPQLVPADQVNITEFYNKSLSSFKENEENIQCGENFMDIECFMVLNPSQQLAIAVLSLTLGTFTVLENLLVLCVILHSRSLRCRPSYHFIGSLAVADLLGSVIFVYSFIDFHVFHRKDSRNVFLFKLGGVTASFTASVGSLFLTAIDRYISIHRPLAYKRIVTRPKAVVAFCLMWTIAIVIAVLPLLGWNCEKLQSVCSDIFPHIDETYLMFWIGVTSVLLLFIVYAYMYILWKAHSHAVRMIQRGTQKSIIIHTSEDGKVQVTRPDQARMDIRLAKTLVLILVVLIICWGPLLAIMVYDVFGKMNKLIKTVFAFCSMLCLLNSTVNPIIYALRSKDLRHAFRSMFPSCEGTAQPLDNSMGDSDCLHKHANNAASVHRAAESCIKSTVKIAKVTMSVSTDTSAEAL
value.type: Ki (nM)

molecule=O=C(Cc1ccccc1F)NC1CCN(c2ncnc3c2nc(-c2ccccc2Cl)n3-c2ccc(Cl)cc2)CC1 assayed_target="human CB1 (Homo sapiens)" value_type=Ki measurement_unit=nM test_value=1.5
molecule=O=C(Cc1ccc(F)cc1)NC1CCN(c2ncnc3c2nc(-c2ccccc2Cl)n3-c2ccc(Cl)cc2)CC1 assayed_target="human CB1 (Homo sapiens)" value_type=Ki measurement_unit=nM test_value=1.4

###

- procedure.text: HLM stability
- Type: in vitro ADME
- assay.conditions: human, liver microsomes; HLM clearance; read-out: HLM Cl
value.type: microsomal CLint (µL/min/mg)

molecule=O=C(Cc1ccc(F)cc1F)NC1CCN(c2ncnc3c2nc(-c2ccccc2Cl)n3-c2ccc(Cl)cc2)CC1 test_value=9
molecule=O=C(Cc1ccccc1F)NC1CCN(c2ncnc3c2nc(-c2ccccc2Cl)n3-c2ccc(Cl)cc2)CC1 test_value=9
molecule=O=C(Cc1ccc(F)cc1)NC1CCN(c2ncnc3c2nc(-c2ccccc2Cl)n3-c2ccc(Cl)cc2)CC1 test_value=8

###

- assayed.target: UniProt P21554
- procedure.text: functional fluorescent calcium mobilization assay, antagonism of CP55,940 (Ke)
- assay.conditions: apparent equilibrium dissociation constant; CHO cells expressing human CB1 along with Gqα16; agonist CP55,940; read-out: Ke hCB1
pKd: −log10 of the molar value.
value.type: pKd

A. O=C(Cc1ccccc1F)NC1CCN(c2ncnc3c2nc(-c2ccccc2Cl)n3-c2ccc(Cl)cc2)CC1
B. CC1(NC(=O)Cc2ccc(F)cc2)CCN(c2ncnc3c2nc(-c2ccccc2Cl)n3-c2ccc(Cl)cc2)CC1
C. CC1(NC(=O)Cc2ccccc2F)CCN(c2ncnc3c2nc(-c2ccccc2Cl)n3-c2ccc(Cl)cc2)CC1
INPUT: Kindly provide a descending ordering of the above compounds based on their pKd. Put the labels in the requested order and write them down.
OUTPUT: A, B, C
